System: HepaRG
Test: LDH release cytotoxicity, % of total lysis control; higher = more cytotoxic
Details: 3.16228 µM; 48 h
Recorded LDH release cytotoxicity, one value per entry.
The figure you give is taken to be in %; do not add the unit.

Example cases with answers are listed next.
MOLECULE	UNITS LABEL	LDH release cytotoxicity
Cc1ccc(N)cc1N	%	-1.86
CCC(=O)Nc1ccc(Cl)c(Cl)c1	%	-0.844
c1nc[nH]n1	%	0.566

## Task Report measured LDH release cytotoxicity; entry is "Nc1ccc([N+](=O)[O-])cc1"
## Result -1.84

## Task Report measured LDH release cytotoxicity; entry is CCCCCCCCOC(=O)c1ccc(C(=O)OCCCCCCCC)c(C(=O)OCCCCCCCC)c1 [Tri-n-octyl trimellitate]
## Result -2.25

## Task Report measured LDH release cytotoxicity; entry is O=c1ccc(=O)[nH][nH]1 [Maleic hydrazide]
## Result -1.91

## Task Report measured LDH release cytotoxicity; entry is "CCCCCCCCCCCCCCCCCC(=O)O"
## Result -1.45

## Task Report measured LDH release cytotoxicity; entry is "Cn1c(=O)c2[nH]cnc2n(C)c1=O"
## Result -1.51

## Task Report measured LDH release cytotoxicity; entry is CC(Oc1cccc(Cl)c1)C(=O)O (stereo unspecified)
## Result -0.762

## Task Report measured LDH release cytotoxicity; entry is "O=C1OC(c2ccc(O)cc2)(c2ccc(O)cc2)c2ccccc21"
## Result -0.391

## Task Report measured LDH release cytotoxicity; entry is "O=C1CCCCCN1"
## Result -0.455

## Task Report measured LDH release cytotoxicity; entry is "CON(C)C(=O)Nc1ccc(Cl)c(Cl)c1"
## Result -1.44

## Task Report measured LDH release cytotoxicity; entry is "CCN(CC)c1ccccc1"
## Result -0.839

## Task Report measured LDH release cytotoxicity; entry is "c1ccc2cc3c(ccc4ccccc43)cc2c1"
## Result -0.916

## Task Report measured LDH release cytotoxicity; entry is "CC1(C)NC(=O)NC1=O"
## Result -1.38

## Task Report measured LDH release cytotoxicity; entry is CC1(C)C(C=C(Cl)Cl)C1C(=O)OC(C#N)c1ccc(F)c(Oc2ccccc2)c1 (stereo unspecified)
## Result -1.18

## Task Report measured LDH release cytotoxicity; entry is NC(Cc1cc(I)c(Oc2ccc(O)c(I)c2)c(I)c1)C(=O)O (stereo unspecified)
## Result -3.84

====

Tested on: HepaRG
Test: LDH release cytotoxicity, % of total lysis control; higher = more cytotoxic
Conditions: 100 µM; 48 h
QUANTITY NAME: LDH release cytotoxicity (%)
The figure you give is taken to be in %; do not add the unit.

COMPOUND	UNITS LABEL	LDH release cytotoxicity
CC[C@H](C)[C@@H](C(=O)O)n1sc2ccccc2c1=O	%	0.0312
Clc1ccc(Cl)cc1	%	5.07

## Task Print HepaRG LDH release cytotoxicity for "Cc1nc(N(C)C)nc(OC(=O)N(C)C)c1C" .
## Result -0.895

## Task Print HepaRG LDH release cytotoxicity for "COC(=O)c1c(Cl)c(Cl)c(C(=O)OC)c(Cl)c1Cl" .
## Result 1.01

## Task Print HepaRG LDH release cytotoxicity for CN(C)C1C(=O)C(C(N)=O)C(=O)C2(O)C(=O)C3C(=O)c4c(O)cccc4C(C)(O)C3C(O)C12 (stereo not given) [Oxytetracycline dihydrate] .
## Result -4
